Source of measurements: patent US20110319379A1

Target: recombinant human glucokinase (Homo sapiens, UniProt P35557)
Construct: Full-length glucokinase (beta cell isoform) was His-tagged at the N-terminus and purified by a Ni column followed by size exclusion chromatography as described above; His tag; made in house; host or cells: E. coli BL21(DE3), vector pBCGK
Assay: Assay 2: Evaluating Activator Potency in a Matrix Assay at Multiple Glucose Concentrations
Assay type: biochemical
Details: Assay 2 matrix assay; 16 glucose concentrations; intrinsic EC50 = concentration affording a 50% reduction in the enzyme's Km (for glucose); read-out: Glucokinase EC50
measured-property: EC50 (nM)

{"compound": "Cn1cc2c(Oc3cnc(C(=O)N4CCCC4)cn3)cc(C(=O)Nc3cnn(C)n3)cc2n1 [Example 1BW]", "target-of-assay": "recombinant human glucokinase (Homo sapiens, UniProt P35557)", "val": 4640}
{"compound": "CC(C)n1cc2c(Oc3cnc(C(=O)N(C)C)cn3)cc(C(=O)Nc3ccn(C)n3)cc2n1 [Example 1BV]", "target-of-assay": "recombinant human glucokinase (Homo sapiens, UniProt P35557)", "val": 1590}
{"compound": "Cc1cnc(NC(=O)c2cc(Oc3ccc(S(=O)(=O)N(C)C)nc3)c3cn(C)nc3c2)cn1 [Example 1AL]", "target-of-assay": "recombinant human glucokinase (Homo sapiens, UniProt P35557)", "val": 3170}
{"compound": "CCn1cc2c(Oc3cnc(C(=O)N4CCC4)cn3)cc(C(=O)Nc3ccn(C)n3)cc2n1 [Example 1BQ]", "target-of-assay": "recombinant human glucokinase (Homo sapiens, UniProt P35557)", "val": 699}
{"compound": "CCc1cnc(NC(=O)c2cc(Oc3ccc(S(N)(=O)=O)cc3)c3cn(CC)nc3c2)cn1 [Example 1CU]", "target-of-assay": "recombinant human glucokinase (Homo sapiens, UniProt P35557)", "val": 1370}

P. Cn1ccc(NC(=O)c2cc(Oc3cnc(C(=O)N4CCC4)cn3)c3cn(C)nc3c2)n1 [Example 1BS]
Q. CCn1cc2c(Oc3ccc(S(C)(=N)=O)cc3)cc(C(=O)Nc3ccc(C)cn3)cc2n1 (single isomer, unassigned) [Example 1CW]
Hey, which is lower on measured EC50, P or Q ? Respond using the label that marks the chosen record. Q

====

Target: recombinant human glucokinase (beta cell isoform) (Homo sapiens)
Construct: Full-length glucokinase (beta cell isoform) was His-tagged at the N-terminus; His tag (N); made in house; host or cells: E. coli BL21(DE3), vector pBCGK
Sequence (P35557 1-465): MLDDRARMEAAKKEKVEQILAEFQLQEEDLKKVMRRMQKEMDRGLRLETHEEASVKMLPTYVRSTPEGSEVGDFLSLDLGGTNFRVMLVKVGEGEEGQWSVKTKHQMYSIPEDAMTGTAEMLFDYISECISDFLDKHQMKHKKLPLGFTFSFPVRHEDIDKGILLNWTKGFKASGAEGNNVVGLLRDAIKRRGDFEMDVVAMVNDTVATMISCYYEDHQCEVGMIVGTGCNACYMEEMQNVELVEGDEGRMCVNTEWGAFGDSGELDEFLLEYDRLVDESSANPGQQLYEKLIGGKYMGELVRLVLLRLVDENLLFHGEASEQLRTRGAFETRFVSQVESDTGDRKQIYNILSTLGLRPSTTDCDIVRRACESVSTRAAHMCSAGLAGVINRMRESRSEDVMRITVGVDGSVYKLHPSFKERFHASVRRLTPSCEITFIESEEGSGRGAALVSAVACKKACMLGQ
Assay: Assay 1: Evaluating Activator Potency and Maximum Activation at 5 mM Glucose
Type: biochemical
Conditions: Assay 1; 5 mM glucose; NADH depletion at 340 nm, PK/LDH coupled; read-out: Glucokinase EC50
measured-property: EC50 (µM)

{"smiles-repr": "CCn1cc2c(Oc3ccc(S(=O)(=O)C4CC4)cc3)cc(C(=O)Nc3ccccn3)cc2n1", "measure-unit": "µM", "EC50": 0.863}
{"smiles-repr": "Cn1ccc(NC(=O)c2cc(Oc3cnc(C(F)(F)F)cn3)c3cn(C)nc3c2)n1", "measure-unit": "µM", "EC50": 22.4}
{"smiles-repr": "COc1cnc(NC(=O)c2cc(Oc3cnc(C(=O)N(C)C)cn3)c3cn(C)nc3c2)cn1", "measure-unit": "µM", "EC50": 2.77}
{"smiles-repr": "CCn1cc2c(Oc3ccc(S(C)(=O)=O)cc3)cc(C(=O)Nc3ccccn3)cc2n1", "measure-unit": "µM", "EC50": 2.42}
{"smiles-repr": "Cc1ccc(NC(=O)c2cc(Oc3cnc(C(=O)N4CCCC4)cn3)c3cn(C)nc3c2)nc1", "measure-unit": "µM", "EC50": 0.293}
{"smiles-repr": "CCn1cc2c(Oc3cnc(C(=O)N(C)C)cn3)cc(C(=O)Nc3cnc(C)cn3)cc2n1", "measure-unit": "µM", "EC50": 2.73}
{"smiles-repr": "Cn1cc2c(Oc3ccc(C(=O)N4CCCC4)c(F)c3)cc(C(=O)Nc3cnccn3)cc2n1", "measure-unit": "µM", "EC50": 0.735}
{"smiles-repr": "CCn1cc2c(Oc3cnc(C(=O)N(C)C)c(F)c3)cc(C(=O)Nc3cnc(C)cn3)cc2n1", "measure-unit": "µM", "EC50": 0.569}
{"smiles-repr": "CN(C)C(=O)c1ncc(Oc2cc(C(=O)Nc3ccc(Cl)cn3)cc3nn(C)cc23)cn1", "measure-unit": "µM", "EC50": 0.863}
{"smiles-repr": "Cc1cnc(NC(=O)c2cc(Oc3ccc(S(C)(=O)=O)cc3)c3cn(C)nc3c2)cn1", "measure-unit": "µM", "EC50": 7.81}

a. Cc1ccc(NC(=O)c2cc(Oc3ccc(C(=O)N4CCCC4)c(F)c3)c3cn(C)nc3c2)nc1
b. Cn1cc2c(Oc3cnc(C(=O)N4CCCC4)cn3)cc(C(=O)Nc3cnccn3)cc2n1
c. Cn1ccc(NC(=O)c2cc(Oc3ccc(S(C)(=O)=O)cc3)c3cn(C)nc3c2)n1
d. CN(C)C(=O)c1cnc(Oc2cc(C(=O)Nc3cnccn3)cc3nn(C)cc23)cn1
Place the items in sequence of falling EC50. To answer, arrange all of the labels according to the requested order. c, d, a, b

a. CCS(=O)(=O)c1ccc(Oc2cc(C(=O)Nc3cnc(C)cn3)cc3nn(C)cc23)cc1
b. CN(C)C(=O)c1ncc(Oc2cc(C(=O)Nc3ccc(C(F)(F)F)cn3)cc3nn(C)cc23)cn1
I'm curious, which of these has a smaller EC50 number: a or b ? Reply briefly: the label of your chosen item. b
(b: 1.04 µM, a: 1.95 µM)

A. Cc1cnc(NC(=O)c2cc(Oc3ccc(S(=O)(=O)C4CC4)cc3)c3cn(C)nc3c2)cn1
B. Cc1ccc(NC(=O)c2cc(Oc3cnc(C(=O)N(C)C)nc3)c3cn(C)nc3c2)nc1
Field: entry with larger EC50 (options A / B ). In your reply, give the label of the chosen option. A
(A: 1.89 µM, B: 1.08 µM)

====

Molecular target: recombinant human glucokinase (Homo sapiens, UniProt P35557)
Construct: Full-length glucokinase (beta cell isoform) was His-tagged at the N-terminus and purified by a Ni column followed by size exclusion chromatography as described above; His tag; made in house; host or cells: E. coli BL21(DE3), vector pBCGK
Test: Assay 2: Evaluating Activator Potency in a Matrix Assay at Multiple Glucose Concentrations
Format: biochemical
Conditions: Assay 2 matrix assay; 16 glucose concentrations; intrinsic EC50 = concentration affording a 50% reduction in the enzyme's Km (for glucose); read-out: Glucokinase EC50
pEC50: −log10 of the molar value.
measured-property: pEC50

Example results:
{"smiles-repr": "CN(C)S(=O)(=O)c1ccc(Oc2cc(C(=O)Nc3ccn(C)n3)cc3nn(C)cc23)cc1", "target-of-assay": "recombinant human glucokinase (Homo sapiens, UniProt P35557)", "val": 6.00}
{"smiles-repr": "CCn1cc2c(Oc3cnc(NC(C)=O)cn3)cc(C(=O)Nc3ccc(C)cn3)cc2n1", "target-of-assay": "recombinant human glucokinase (Homo sapiens, UniProt P35557)", "val": 5.61}
{"smiles-repr": "CCn1cc2c(Oc3ccc(S(C)(=O)=O)cc3)cc(C(=O)Nc3cnc(C)cn3)cc2n1", "target-of-assay": "recombinant human glucokinase (Homo sapiens, UniProt P35557)", "val": 6.27}
{"smiles-repr": "CCn1cc2c(Oc3ccc(S(C)(=O)=O)cc3)cc(C(=O)Nc3ncns3)cc2n1", "target-of-assay": "recombinant human glucokinase (Homo sapiens, UniProt P35557)", "val": 6.04}

P. CCc1cnc(NC(=O)c2cc(Oc3ccc(S(C)(=O)=O)cc3)c3cn(CC)nc3c2)cn1
Q. CCOc1cnc(NC(=O)c2cc(Oc3ccc(S(C)(=O)=O)cc3)c3cn(CC)nc3c2)cn1
Response body: label of entry with the larger pEC50; valid values P , Q . Respond with the label that goes with your answer. Q

A. CCn1cc2c(Oc3cnc(C(=O)N(C)C)c(F)c3)cc(C(=O)Nc3cnccn3)cc2n1
B. Cc1ccc(NC(=O)c2cc(Oc3ccc4c(c3)CCS4(=O)=O)c3cn(C)nc3c2)nc1
Which record shows the lower pEC50: the first, A , or the second, B ? Use the label to indicate which entry you chose. B
(B: 6.09, A: 6.71)

P. CCn1cc2c(Oc3cnc(C(=O)N(C)C)cn3)cc(C(=O)Nc3ccn(C)n3)cc2n1
Q. CCn1cc2c(Oc3cnc(C(=O)N(C)C)cn3)cc(C(=O)Nc3cnc(OC)cn3)cc2n1
Two entries are listed, P and Q . Which one carries the higher pEC50? Answer with the label corresponding to your selection. Q
(Q: 6.27, P: 5.98)
